# system-tested: 229E Mpro (Human coronavirus 229E, UniProt P0C6X1)
# Sequence (P0C6X1 2966-3267): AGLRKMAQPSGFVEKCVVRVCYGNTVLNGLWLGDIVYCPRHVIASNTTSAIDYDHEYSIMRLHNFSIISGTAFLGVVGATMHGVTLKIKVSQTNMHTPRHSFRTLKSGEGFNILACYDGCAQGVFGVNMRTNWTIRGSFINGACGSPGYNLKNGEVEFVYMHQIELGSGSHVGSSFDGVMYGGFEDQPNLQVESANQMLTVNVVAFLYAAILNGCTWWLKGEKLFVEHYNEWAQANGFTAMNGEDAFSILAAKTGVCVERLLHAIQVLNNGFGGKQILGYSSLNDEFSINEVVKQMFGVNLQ
# procedure-summary: 229E Mpro enzymatic assay (standard methods, SARS-CoV2 Mpro assay given as exemplary)
# Assay type: biochemical, human coronavirus (HCov) 229E
# condition-parameters: 229E Mpro EC50
endpoint-label: EC50

Entry C[C@@]1(O)C[C@H](C(=O)N(c2ccc(S(F)(F)(F)(F)F)cc2)C(C(=O)NC2CCOCC2)c2cnccn2)N(C#N)C1 (stereo partly drawn) , EC50 reported as < 2000 nM

Value of measured EC50 for the entry CC(C)(C)c1ccc(N(C(=O)[C@H]2CCCN2C#N)C(C(=O)N2CC(F)C2)c2cccnc2)cc1 (stereo partly drawn) : < 2000 nM

So for CC(C)(C)c1ccc(N(C(=O)[C@H]2C[C@H](Oc3ccccc3)CN2C#N)C(C(=O)NC2CCCCC2)c2cccnc2)cc1 (single isomer, unassigned) [Compound 308 Isomer 1] , the logged EC50 turned out to be > 30000 nM

The recorded EC50 for CO[C@@H]1C[C@H](C(=O)N(c2ccc(C(C)(C)C)cc2)C(C)(C(=O)NC2CCC(F)(F)CC2)c2cccnc2)N(C#N)C1 (single isomer, unassigned) [1232 Isomer 2] is < 2000 nM

Reported EC50 for CC(C)(C)c1ccc(N(C(=O)c2nsnc2C(N)=O)C(C(=O)NC2CCCCC2)c2cccnc2)cc1 (stereo not drawn) [Compound 123a] was > 30000 nM

Reported EC50 of CC(C)(C)c1ccc(N(C(=O)[C@H]2CCCN2C#N)C(C(=O)NC2CCCCC2)c2cncc(F)c2)cc1 (single isomer, unassigned) [475 Isomer 1] : < 2000 nM

* * *

Assign EC50 to each entry below.
# system-tested: 229E Mpro (Human coronavirus 229E)
# procedure-summary: 229E Mpro enzymatic assay (standard methods, SARS-CoV2 Mpro assay given as exemplary)
# Format: biochemical, human coronavirus (HCov) 229E
# condition-parameters: 229E Mpro EC50
# Description: Compounds were assayed using standard methods to assess compound activity and IC50. As an exemplary for assessment of the SARS-COV2 Mpro, the C-His6-tagged Mpro (NC_045512) was cloned, expressed in E. coli and purified. […] IC50 values of compounds were calculated with the GraphPad Prism software using the nonlinear regression model of log(inhibitor) vs. response—Variable slope (four parameters). […]

Summary for this molecule, CC(C)(C)c1ccc(N(C(=O)[C@H]2N(C#N)CC2(C)C)C(C(=O)NC2CCCCC2)c2cccnc2)cc1 (some centres unmarked) [Compound 136a] : EC50 is > 30000 nM

Kindly note the recorded EC50 for CC(C)(C)c1ccc(N(C(=O)[C@H]2CCCN2C#N)C(C(=O)N2CCNC(=O)C2)c2cccnc2)cc1 (single isomer, unassigned) [Compound 961 Isomer 1] , which is < 2000 nM

Entry CC1(C)CN(C#N)[C@@H](C(=O)N(c2ccc(C(C)(C)C)cc2)C(C(=O)NC2CCOCC2)c2cccnc2)CO1 (single isomer, unassigned) [Compound 1141] ; EC50 = < 2000 nM

Entry CO[C@@H]1C[C@H](C(=O)N(c2ccc(S(F)(F)(F)(F)F)cc2)C(C(=O)N2CC3(COC3)C2)c2cccnc2)N(C#N)C1 (single isomer, unassigned) [1171 Isomer 1] ; EC50 = < 2000 nM

EC50 reading for CO[C@@H]1C[C@H](C(=O)N(c2ccc(S(F)(F)(F)(F)F)cc2)C(C(=O)NCC2(C)CCCN(C(=O)OC(C)(C)C)C2)c2cccnc2)N(C#N)C1 (single isomer, unassigned) [1290 Isomer 1] : < 2000 nM

* * *

# system-tested: COVID-19 (nCoV-2019, SARS-CoV2) Mpro (Severe acute respiratory syndrome coronavirus 2)
# procedure-summary: COVID-19 (nCoV-2019, SARS-CoV2) Mpro enzymatic assay
# Format: biochemical
# condition-parameters: 25 nM Mpro, 25 μM substrate; read-out: COVID-19 Mpro IC50
endpoint-label: IC50

The compound listed as C[C@@]1(O)C[C@H](C(=O)N(c2ccc(S(F)(F)(F)(F)F)cc2)C(C(=O)NC2CCOCC2)c2cnccn2)N(C#N)C1 (some centres unmarked) shows IC50 equal to < 2000 nM

Item: C[C@@]1(O)C[C@H](C(=O)N(c2ccc(S(F)(F)(F)(F)F)cc2)C(C(=O)NC2CCC(F)(F)CC2)c2ccc(F)nc2)N(C#N)C1 (single isomer, unassigned) [1157 Isomer 2] | IC50: 2000 to 10000 nM

compound C[C@H](NC(=O)C(c1cncc(F)c1)N(C(=O)[C@H]1C[C@@](C)(O)CN1C#N)c1ccc(-c2ccccc2)cc1)c1ccccc1 (single isomer, unassigned) [1345 Isomer 1] , IC50 observed: < 2000 nM

Lookup result for CO[C@@H]1C[C@H](C(=O)N(c2ccc(S(F)(F)(F)(F)F)cc2)C(C(=O)NC2CCC(F)(F)CC2)c2nncn2C(C)C)N(C#N)C1 (some centres unmarked) ; measured IC50: > 30000 nM

Lab note: measured IC50 of CC(C)(C)c1ccc(N(C(=O)[C@H]2COCCN2C#N)C(C(=O)NC2CCCCC2)c2cccnc2)cc1 (single isomer, unassigned) [Compound 202 Isomer 1] was < 2000 nM

* * *

# System: HCov OC43
# procedure-summary: HCoV OC43 cytopathic effect (CPE) assay, CellTiter Glo
# Type: cell-based, human coronavirus (HCov) OC43
# condition-parameters: read-out: OC43 IC50 (uM) MEDIAN; median; listed as 435 Isomer 2
endpoint-label: IC50

Record CN(C)CCNC(=O)C(c1cccnc1)N(C(=O)[C@H]1CCCN1C#N)c1ccc(C(C)(C)C)cc1 (single isomer, unassigned) [Compound 435 Isomer 2] . Reported IC50: 10 to 30 µM

* * *

# system-tested: COVID-19 (nCoV-2019, SARS-CoV2) Mpro (Severe acute respiratory syndrome coronavirus 2, UniProt P0DTD1)
# procedure-summary: COVID-19 (nCoV-2019, SARS-CoV2) Mpro enzymatic assay
# Assay type: biochemical
# condition-parameters: 25 nM Mpro, 25 μM substrate; read-out: COVID-19 Mpro IC50
endpoint-label: IC50

Lab note: CC(C)(C)c1ccc(N(C(=O)[C@H]2CCCN2C#N)C(C(=O)N2CC(=O)C2)c2cccnc2)cc1 (some centres unmarked) [Compound 946b] gave IC50 of 10 to 30 µM

Query CC(C)(C)c1ccc(N(C(=O)[C@H]2CCCN2C#N)C(C(=O)NCc2ccncc2)c2cccnc2)cc1 (single isomer, unassigned) [Compound 439 Isomer 1] yields IC50 of 2 to 10 µM

Lab note: measured IC50 of O=C(NC1CCC(F)(F)CC1)C(c1cncc(F)c1)N(C(=O)c1cnc[nH]1)c1ccc(S(F)(F)(F)(F)F)cc1 (single isomer, unassigned) [1337 Isomer 2] was 10 to 30 µM

Memo: CC(C)(C)c1ccc(N(C(=O)[C@H]2C[C@@](C)(O)CN2C#N)C(C(=O)NC2CCOCC2)c2cccnc2)cc1 (single isomer, unassigned) [1142 Isomer 2] , reported IC50: 2 to 10 µM

Entry under test: CO[C@@H]1C[C@H](C(=O)N(c2ccc(S(F)(F)(F)(F)F)cc2)C(C(=O)N(C)CC(=O)NC2CC2)c2cccnc2)N(C#N)C1 (single isomer, unassigned) [1122 Isomer 2] . Its IC50 was 10 to 30 µM

IC50 in this record for N#CN1C[C@@H](F)C[C@@H]1C(=O)N(c1ccc(S(F)(F)(F)(F)F)cc1)C(C(=O)NC1CCC(F)(F)CC1)c1cncc(F)c1 (single isomer, unassigned) [Compound 1099 Isomer 2] : < 2 µM

Input CO[C@@H]1C[C@H](C(=O)N(c2ccc(S(F)(F)(F)(F)F)cc2)C(C(=O)NC2CC3CCC(C2)O3)c2cccnc2)N(C#N)C1 (single isomer, unassigned) [1187 Isomer 2] . Output IC50: < 2 µM

Please fill in: IC50 reported for CC(C)(C)c1ccc(N(C(=O)[C@H]2CC(=O)CN2C#N)C(C(=O)NC2CCCCC2)c2cccnc2)cc1 (single isomer, unassigned) [Compound 278 Isomer 1] = 2 to 10 µM

CC1(C)CCNc2cc(N(C(=O)[C@H]3C[C@@](C)(O)CN3C#N)C(C(=O)NC3CCC(F)(F)CC3)c3cncc(F)c3)ccc21 (single isomer, unassigned) [Compound 1127 Isomer 2] yielded IC50 of < 2 µM

The compound listed as CO[C@@H]1C[C@H](C(=O)N(c2ccc(S(F)(F)(F)(F)F)cc2)C(C(=O)Nc2ccc3c(c2)OCCO3)c2cccnc2)N(C#N)C1 (single isomer, unassigned) [1170 Isomer 2] has a reported IC50 of < 2 µM

Please fill in: IC50 reported for CC(C)(C)c1ccc(N(C(=O)[C@H]2[C@H](F)CCN2C#N)C(C(=O)NC2CCCCC2)c2cccnc2)cc1 (single isomer, unassigned) [Compound 910 Isomer 2] = 10 to 30 µM

* * *

Would you kindly list EC50 for each of these compounds?
# system-tested: 229E Mpro (Human coronavirus 229E)
# procedure-summary: 229E Mpro enzymatic assay (standard methods, SARS-CoV2 Mpro assay given as exemplary)
# Type: biochemical, human coronavirus (HCov) 229E
# condition-parameters: read-out: 229E Mpro EC50

get_value(item= N#CN1CCOC[C@@H]1C(=O)N(c1ccc(C2CC2)cc1F)C(C(=O)NC1CCC(F)(F)CC1)c1cnccc1C(F)(F)F (single isomer, unassigned) [Compound 1313 Isomer 2] , readout=EC50) returns < 2 µM

Sample CC1(O)C[C@H](C(=O)N(c2ccc(C(C)(C)C)cc2)C(C(=O)NC2CCCCC2)c2cccnc2)N(C#N)C1 (single isomer, unassigned) [Compound 284 Isomer 1] ; EC50 observed: < 2 µM

The compound N#CN1C[C@H]2C[C@H]2[C@@H]1C(=O)N(c1ccc(S(F)(F)(F)(F)F)cc1)C(C(=O)NC1CCC(F)(F)CC1)c1cnccc1C(F)(F)F (single isomer, unassigned) [Compound 1318 Isomer 2] showed EC50 equal to < 2 µM

Value of EC50 reported for the compound N#CN1C2CCC1(C(=O)N(c1ccc(S(F)(F)(F)(F)F)cc1)C(C(=O)NC1CCC(F)(F)CC1)c1cncc(F)c1)CC2 (stereo not drawn) [Compound 1101] is 2 to 10 µM

The reported value for CC(C)(C)OC(=O)N1CCC[C@@H]1C(=O)N(c1ccc(C(C)(C)C)cc1)C(C(=O)NC1CCCCC1)c1cccnc1 (stereo partly drawn) [Compound 131b] in terms of EC50 is > 30 µM

Short answer for CC(C)(C)c1ccc(N(C(=O)[C@H]2[C@H](F)CCN2C#N)C(C(=O)NC2CCC(F)(F)CC2)c2cncc(F)c2)cc1 (single isomer, unassigned) [1212 Isomer 2] : EC50 was < 2 µM
